- MEASURED ON: human M2 receptor (Homo sapiens)
- Construct: expressed in transfected cells; host or cells: CHO-DUKX (CHO-DUKX-M2-GIRK)
- Sequence (P08172 whole entry): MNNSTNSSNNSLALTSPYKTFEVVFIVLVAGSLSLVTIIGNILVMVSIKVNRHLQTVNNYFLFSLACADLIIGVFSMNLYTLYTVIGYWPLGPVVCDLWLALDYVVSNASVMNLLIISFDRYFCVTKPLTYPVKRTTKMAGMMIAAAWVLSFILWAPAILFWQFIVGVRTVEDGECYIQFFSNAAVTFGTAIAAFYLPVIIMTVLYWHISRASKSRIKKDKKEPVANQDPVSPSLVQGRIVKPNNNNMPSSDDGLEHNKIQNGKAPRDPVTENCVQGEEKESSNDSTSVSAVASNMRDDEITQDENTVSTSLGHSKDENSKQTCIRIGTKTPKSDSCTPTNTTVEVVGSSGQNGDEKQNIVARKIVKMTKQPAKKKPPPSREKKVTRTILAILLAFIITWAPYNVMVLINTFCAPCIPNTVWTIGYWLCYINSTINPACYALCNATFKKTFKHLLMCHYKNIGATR
- TEST PROTOCOL: Functional M2-GIRK1/4 activation test: allosteric potency (EC50) and efficiency at EC20 acetylcholine
- Format: cell-based
- STATED CONDITIONS: boosting of the acetylcholine effect at EC20 acetylcholine concentration; CHO-DUKX-M2-GIRK cells
Parameter Emax: see the listing below.

COMPOUND	Emax
CC[C@H](NC(=O)c1cn(-c2c(F)cc(F)cc2F)c2nc(N3C[C@@H](O)[C@@H](O)C3)c(F)cc2c1=O)C(F)(F)F	98%
CC(C)C(NC(=O)c1cn(-c2c(F)cc(F)cc2Cl)c2nc(N3C[C@@H](O)[C@H](O)C3)c(F)cc2c1=O)C(F)(F)F (some centres unmarked)	84%
CC[C@H](NC(=O)c1cn(-c2c(F)cc(F)cc2F)c2nc(N3C[C@@H](O)[C@H](O)C3)c(Cl)cc2c1=O)C(F)(F)F	100%
CC(NC(=O)c1cn(-c2c(F)cc(F)cc2F)c2nc(N3CC[C@H](O)[C@@H]3CO)c(F)cc2c1=O)C(F)(F)C(F)(F)F (single isomer, unassigned)	94%

Asked: Reported Emax for CC(NC(=O)c1cn(-c2c(F)cc(F)cc2F)c2nc(N3CCC4(C3)NC(=O)NC4=O)c(F)cc2c1=O)C(F)(F)C(F)(F)F (centres unmarked) : what is it?
Given back: 92%

Asked: Could you do the same for O=C(NC(C1CC1)C1CC1)c1cn(-c2c(F)cc(F)cc2F)c2nc(N3C[C@@H](O)[C@H](O)C3)c(F)cc2c1=O , please?
Given back: 100%

Asked: // same read-out, input: O=C(NC(C(F)(F)F)C(F)(F)F)c1cn(-c2c(F)cc(F)cc2F)c2nc(N3CCC(CO)(CO)CC3)c(F)cc2c1=O
Given back: 100%

Asked: Queued: CCC(COC(F)(F)F)NC(=O)c1cn(-c2c(F)cc(F)cc2F)c2nc(N3CC[C@H](O)C3)c(F)cc2c1=O (single isomer, unassigned) [Example 110]
Given back: 100%

Asked: Now consider CC(C)(NC(=O)c1cn(-c2c(F)cc(F)cc2Cl)c2nc(N3C[C@@H](O)[C@H](O)C3)c(F)cc2c1=O)C(F)F (single isomer, unassigned) [Example 142] .
Given back: 99%

Asked: Try this compound too: CC(NC(=O)c1cn(-c2c(F)cc(F)cc2F)c2nc(N3C[C@@H](O)[C@@H](O)C3)c(F)cc2c1=O)C(F)(F)C(F)(F)F (mixture of isomers) [Example 92]
Given back: 100%

Asked: Could you do the same for C[C@@H](NC(=O)c1cn(-c2c(F)cc(F)cc2Cl)c2nc(N3C[C@@H](O)[C@H](O)C3)c(F)cc2c1=O)C1CC1 , please?
Given back: 100%

Asked: Now try CCC(C)(CC)NC(=O)c1cn(-c2ncc(F)cc2F)c2nc(N3C[C@@H](O)[C@H](O)C3)c(F)cc2c1=O .
Given back: 100%

Asked: Please answer likewise for CC(C)(C)NC(=O)c1cn(-c2c(F)cc(F)cc2F)c2nc(N3C[C@@H](O)[C@H](O)C3)c(F)cc2c1=O
Given back: 95%

Asked: Can you check CC[C@H](NC(=O)c1cn(-c2c(F)cc(F)cc2F)c2nc(N3C[C@@H](O)[C@H](O)C3)c(F)cc2c1=O)C(F)(F)F next?
Given back: 94%

Asked: Now this one: CCC(C)(C)NC(=O)c1cn(-c2c(F)cc(F)cc2F)c2nc(N(C)C)c(F)cc2c1=O
Given back: 94%

Asked: What about this compound? O=C(N[C@@H](C1CC1)C(F)(F)F)c1cn(-c2c(F)cc(F)cc2F)c2nc(N3CCCC3)c(F)cc2c1=O
Given back: 82%

Asked: Same for CC[C@H](NC(=O)c1cn(-c2c(F)cc(F)cc2F)c2nc(N3C[C@H](O)[C@@H](O)C3)c(F)cc2c1=O)C(F)(F)F
Given back: 99%
